B1: OR4K15 (parent)
chain: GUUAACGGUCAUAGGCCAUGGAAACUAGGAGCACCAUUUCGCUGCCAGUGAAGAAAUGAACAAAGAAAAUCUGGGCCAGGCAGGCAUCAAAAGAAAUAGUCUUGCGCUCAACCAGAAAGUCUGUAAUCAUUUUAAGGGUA

variants of: B1; test: self-cleavage, relative activity (ratio to wild type); higher = more cleavage; in vitro, sequencing; the parent is a self-cleaving ribozyme
quantity.kind: self-cleavage
// response body must contain only the number

Some entries whose results are on file:
>  <variant.name>
G136C

>  <self-cleavage>
1.29

$$$$
>  <variant.name>
A82U A126C

>  <self-cleavage>
0.05

$$$$
>  <variant.name>
U9G U102C

>  <self-cleavage>
2.28

$$$$
>  <variant.name>
A56G

>  <self-cleavage>
0.72

$$$$
>  <variant.name>
A36G A135G

>  <self-cleavage>
1.59

$$$$
>  <variant.name>
U2C U43A

>  <self-cleavage>
1

$$$$
>  <variant.name>
U9A A30G

>  <self-cleavage>
0.98

$$$$
>  <variant.name>
U2A U72C

>  <self-cleavage>
0.48

$$$$
>  <variant.name>
A51G A94U

>  <self-cleavage>
1.78

$$$$
>  <variant.name>
A30G A55G

>  <self-cleavage>
1.14

$$$$

IN: Which self-cleavage value belongs to G8A A92G ?
OUT: 1.56

IN: Subsequent entry: A47G U100G
OUT: 2.14
